- Test system: MCF-7 breast cancer cell line
- EXPERIMENTAL PROTOCOL: Antiproliferation study, MTT cell viability assay
- Type: cell-based
- RECORDED CONDITIONS: Homo sapiens, MCF7, MTT cell viability assay; read-out: Inhibition of cell viability (IC50 value, nM) MCF-7

{"COMPOUND": "C=CC1C(=O)N(c2cc(OC)c(OC)c(OC)c2)C1c1ccc(OC)c(O)c1 (centres unmarked) [Compound 2]", "ASSAYED SYSTEM": "MCF-7 breast cancer cell line", "IC50": "0.8 to 3.1 nM"}
{"COMPOUND": "COc1ccc(C2C(c3ccc(O)cc3)C(=O)N2c2cc(OC)c(OC)c(OC)c2)cc1O (centres unmarked) [Compound 14]", "ASSAYED SYSTEM": "MCF-7 breast cancer cell line", "IC50": "0.8 to 3.1 nM"}

====

- EXPERIMENTAL PROTOCOL: Stability by HPLC at three pH values
- Assay type: physicochemical
- RECORDED CONDITIONS: all pH values (4, 7.4, 9), HPLC

{"MOLECULE": "COc1ccc(C2C(c3ccccc3)C(=O)N2c2cc(OC)c(OC)c(OC)c2)cc1 (centres unmarked)", "half-life": "> 24 h"}
{"MOLECULE": "COc1ccc(C2C(c3cccs3)C(=O)N2c2cc(OC)c(OC)c(OC)c2)cc1 (centres unmarked)", "half-life": "> 24 h"}

====

- EXPERIMENTAL PROTOCOL: In vitro stability in plasma
- Assay type: in vitro ADME
- RECORDED CONDITIONS: human plasma
MEASUREMENT KIND: half-life (h)

{"COMPOUND": "COc1ccc(C2C(Oc3ccccc3)C(=O)N2c2cc(OC)c(OC)c(OC)c2)cc1O (stereo not shown)", "MEASUREMENT KIND": "half-life", "UOM": "h", "NUMERIC READOUT": 35}

====

This section presents compounds with their documented melting point values.
MEASUREMENT KIND: melting point (°C)

{"COMPOUND": "COc1ccc(C2C(c3ccc(F)cc3)C(=O)N2c2cc(OC)c(OC)c(OC)c2)cc1 (stereo not shown) [Compound 11]", "NUMERIC READOUT": 120}
{"COMPOUND": "COc1ccc(C2C(c3ccc(O)cc3)C(=O)N2c2cc(OC)c(OC)c(OC)c2)cc1N (stereo not shown) [Compound 15]", "NUMERIC READOUT": 177}
{"COMPOUND": "COc1ccc(C2C(c3ccccc3)C(=O)N2c2cc(OC)c(OC)c(OC)c2)cc1O (stereo not shown) [Compound 4]", "NUMERIC READOUT": 110}
{"COMPOUND": "COc1ccc(C2C(c3ccc(O)cc3)C(=O)N2c2cc(OC)c(OC)c(OC)c2)cc1O (stereo not shown) [Compound 14]", "NUMERIC READOUT": 152}
{"COMPOUND": "COc1ccc(C2C(c3ccc(O)cc3)C(=O)N2c2cc(OC)c(OC)c(OC)c2)cc1 (stereo not shown) [Compound 10]", "NUMERIC READOUT": 155}
{"COMPOUND": "COc1ccc(C2C(c3cccs3)C(=O)N2c2cc(OC)c(OC)c(OC)c2)cc1 (stereo not shown) [Compound 12]", "NUMERIC READOUT": 115}
{"COMPOUND": "COc1ccc(C2C(c3ccccc3)C(=O)N2c2cc(OC)c(OC)c(OC)c2)cc1 (stereo not shown) [Compound 8]", "NUMERIC READOUT": 108}
{"COMPOUND": "COc1ccc(C2C(c3ccsc3)C(=O)N2c2cc(OC)c(OC)c(OC)c2)cc1 (stereo not shown) [Compound 21]", "NUMERIC READOUT": 130}
